The values you see were collected from patent US20260297081A1.

A collection of compounds and their measured inhibition at 0.04 µM
MEASUREMENT TARGET: CDK4 (Homo sapiens, UniProt P11802+Q16531)
Sequence (P11802 2-303 limits assumed): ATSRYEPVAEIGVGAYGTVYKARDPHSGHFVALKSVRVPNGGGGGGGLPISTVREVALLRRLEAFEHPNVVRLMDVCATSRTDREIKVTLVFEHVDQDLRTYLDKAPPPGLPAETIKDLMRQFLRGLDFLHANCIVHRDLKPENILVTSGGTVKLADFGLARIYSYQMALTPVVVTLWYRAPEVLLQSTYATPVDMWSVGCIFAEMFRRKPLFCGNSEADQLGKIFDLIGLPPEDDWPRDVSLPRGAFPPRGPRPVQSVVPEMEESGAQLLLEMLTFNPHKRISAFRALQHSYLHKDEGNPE
Sequence (P24385 whole entry partner): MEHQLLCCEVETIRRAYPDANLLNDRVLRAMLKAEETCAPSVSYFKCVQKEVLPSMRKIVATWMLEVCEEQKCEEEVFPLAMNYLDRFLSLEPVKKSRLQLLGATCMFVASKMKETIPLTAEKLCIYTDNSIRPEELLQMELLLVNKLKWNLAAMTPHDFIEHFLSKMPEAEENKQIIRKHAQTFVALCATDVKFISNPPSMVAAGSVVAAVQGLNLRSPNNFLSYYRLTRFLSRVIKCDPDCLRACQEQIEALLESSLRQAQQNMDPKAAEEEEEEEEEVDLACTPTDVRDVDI
Sequence (Q16531 2-1140 limits assumed): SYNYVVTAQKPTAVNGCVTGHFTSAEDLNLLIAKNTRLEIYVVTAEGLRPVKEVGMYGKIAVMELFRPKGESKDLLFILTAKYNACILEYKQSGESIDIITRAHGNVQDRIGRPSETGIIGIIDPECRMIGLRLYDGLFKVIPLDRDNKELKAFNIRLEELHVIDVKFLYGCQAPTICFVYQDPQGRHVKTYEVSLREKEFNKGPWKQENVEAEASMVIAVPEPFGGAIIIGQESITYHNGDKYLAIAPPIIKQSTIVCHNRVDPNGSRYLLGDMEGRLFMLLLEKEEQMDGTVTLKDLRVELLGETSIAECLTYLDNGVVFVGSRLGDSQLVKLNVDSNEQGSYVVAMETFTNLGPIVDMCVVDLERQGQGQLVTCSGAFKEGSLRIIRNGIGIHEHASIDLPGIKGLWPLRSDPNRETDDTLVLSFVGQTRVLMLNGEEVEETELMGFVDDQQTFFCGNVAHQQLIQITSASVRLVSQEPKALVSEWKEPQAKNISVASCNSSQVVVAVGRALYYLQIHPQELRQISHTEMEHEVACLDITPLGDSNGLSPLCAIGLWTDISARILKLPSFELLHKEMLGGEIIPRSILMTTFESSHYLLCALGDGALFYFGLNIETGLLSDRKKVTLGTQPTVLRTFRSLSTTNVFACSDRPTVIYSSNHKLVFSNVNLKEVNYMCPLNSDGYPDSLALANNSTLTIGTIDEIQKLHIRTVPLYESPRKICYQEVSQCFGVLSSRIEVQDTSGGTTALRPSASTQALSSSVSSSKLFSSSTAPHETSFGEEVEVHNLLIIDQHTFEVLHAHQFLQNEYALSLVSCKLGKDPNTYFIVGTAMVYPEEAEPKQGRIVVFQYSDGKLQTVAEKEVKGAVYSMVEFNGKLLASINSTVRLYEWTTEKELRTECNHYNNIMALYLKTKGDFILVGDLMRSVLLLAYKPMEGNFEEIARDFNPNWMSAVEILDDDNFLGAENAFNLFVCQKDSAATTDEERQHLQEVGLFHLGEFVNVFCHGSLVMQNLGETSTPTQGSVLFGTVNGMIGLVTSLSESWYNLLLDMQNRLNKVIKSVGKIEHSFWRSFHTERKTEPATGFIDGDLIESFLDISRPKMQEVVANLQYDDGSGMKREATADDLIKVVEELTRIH
EXPERIMENT: CDK4 percentage degradation in Calu-1 cells (Table 6)
Format: cell-based
Set-up: Cells that express cyclin D1-3 and CDK4/6 proteins were treated with heterobifunctional compounds; endogenous in cells; host or cells: Calu-1
COND: 40 nM, 16 hours

| SMILES TEXT | inhibition at 0.04 µM |
| --- | --- |
| CNc1ccc(C(=O)Nc2cccc(C)n2)c(NC2CC3(C2)CN(C(=O)C(C)(C)N2CCN(c4ccc(Nc5ncc6c(C)c(C(C)=O)c(=O)n(C7CCCC7)c6n5)nc4)CC2)C3)n1 | < 30% |
| CNc1ccc(C(=O)Nc2ccc(N(C)C)nn2)c(NC(=O)CN2CCN(c3ccc(Nc4ncc5c(C)c(C(C)=O)c(=O)n(C6CCCC6)c5n4)nc3)CC2)n1 | < 30% |
| CNc1ccc(C(=O)Nc2ccc(N(C)C)nn2)c(NC2CC3(C2)CN(C(=O)C(C)(C)CN2CCN(c4ccc(Nc5ncc6c(C)c(C(C)=O)c(=O)n(C7CCCC7)c6n5)nc4)CC2)C3)n1 | 50 to 80% |
